Test system: 379773-124-R-J2-PDC spheroid viability
Test: Anticancer human tumor 379773-124-R-J2-PDC patient-derived endometrial carcinoma cell line growth inhibition [POLQ]; active = viability on the fitted dose curve at most 10% of control; inactive = the rest
Conditions: second compound 1 µM; first compound 3.16 µM; spheroids with HUVEC and MSC
Write down one outcome, taken from active, inactive

Solved cases (2 shown):
CC1COCCN1c1cc(-c2ccnn2C)c2ccnc(-c3ccn[nH]3)c2n1 (stereo not drawn) + Cc1cccc(N(C)C(=O)C2C(O)CCN2c2nc(C)cc(C(F)(F)F)c2C#N)c1	active
CCCS(=O)(=O)Nc1ccc(F)c(C(=O)c2c[nH]c3ncc(-c4ccc(Cl)cc4)cc23)c1F + COC1C(OC(N)=O)C(O)C(Oc2ccc3c(O)c(NC(=O)c4ccc(O)c(CC=C(C)C)c4)c(=O)oc3c2C)OC1(C)C	inactive

Q. I'd appreciate the recorded outcome for CCc1cc2c(N3CCc4c(cc(Cn5ccnc5)cc4-c4cn(C)nc4C(F)(F)F)C3=O)ccnc2c(OC)n1 + Nc1ccc(C#CCN(C(=O)Cc2ncc(C(F)(F)F)cc2C(F)(F)F)c2ccc(F)cc2)nn1 from this test.
A. inactive

---

System: 379773-124-R-J2-PDC spheroid viability
Experiment: Anticancer human tumor 379773-124-R-J2-PDC cell line growth inhibition [POLQ]; active = viability on the fitted dose curve at most 10% of control; inactive = the rest;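 also: spheroids exposed to drugs for seven days before readout; percent viability relative to DMSO vehicle control taken as 100%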
Settings: second compound 0.1 µM; first compound 0.1 µM; spheroids with HUVEC and MSC
Hello, when you answer, please use one of the following outcomes: Y = active, N = inactive

CCCS(=O)(=O)Nc1ccc(F)c(C(=O)c2c[nH]c3ncc(-c4ccc(Cl)cc4)cc23)c1F + COC1C(OC(N)=O)C(O)C(Oc2ccc3c(O)c(NC(=O)c4ccc(O)c(CC=C(C)C)c4)c(=O)oc3c2C)OC1(C)C	N
O=C(Nc1ccc(O)c(NS(=O)(=O)c2ccc(F)cc2)c1)c1ccc(-c2ccccc2)cc1 + Cc1cccc(N(C)C(=O)C2C(O)CCN2c2nc(C)cc(C(F)(F)F)c2C#N)c1	N
COc1cccc(OCCCN)c1-c1cc(Nc2cnc(C#N)cn2)n[nH]1 + COC1C(OC(N)=O)C(O)C(Oc2ccc3c(O)c(NC(=O)c4ccc(O)c(CC=C(C)C)c4)c(=O)oc3c2C)OC1(C)C	Y
CCc1cc2c(N3CCc4c(cc(Cn5ccnc5)cc4-c4cn(C)nc4C(F)(F)F)C3=O)cc(C)nc2c(OC)n1 + Nc1ccc(C#CCN(C(=O)Cc2ncc(C(F)(F)F)cc2C(F)(F)F)c2ccc(F)cc2)nn1	N
Cn1ncnc1[C@H]1c2n[nH]c(=O)c3cc(F)cc(c23)N[C@@H]1c1ccc(F)cc1 + COC1C(OC(N)=O)C(O)C(Oc2ccc3c(O)c(NC(=O)c4ccc(O)c(CC=C(C)C)c4)c(=O)oc3c2C)OC1(C)C	N
COc1cccc(OCCCN)c1-c1cc(Nc2cnc(C#N)cn2)n[nH]1 + Nc1ccc(C#CCN(C(=O)Cc2ncc(C(F)(F)F)cc2C(F)(F)F)c2ccc(F)cc2)nn1	Y
CCc1cc2c(N3CCc4c(cc(Cn5ccnc5)cc4-c4cn(C)nc4C(F)(F)F)C3=O)cc(C)nc2c(OC)n1 + Cc1cccc(N(C)C(=O)C2C(O)CCN2c2nc(C)cc(C(F)(F)F)c2C#N)c1	N
CC[C@@]1(O)C(=O)OCc2c1cc1n(c2=O)Cc2cc3c(CN(C)C)c(O)ccc3nc2-1 + COC1C(OC(N)=O)C(O)C(Oc2ccc3c(O)c(NC(=O)c4ccc(O)c(CC=C(C)C)c4)c(=O)oc3c2C)OC1(C)C	N

Q. Outcome? COc1cc2cc(C(=O)CCC(=O)O)sc2cc1OC + Nc1ccc(C#CCN(C(=O)Cc2ncc(C(F)(F)F)cc2C(F)(F)F)c2ccc(F)cc2)nn1
A. N

Q. Which outcome did this test record for the compound CCc1cc2c(N3CCc4c(cc(Cn5ccnc5)cc4-c4cn(C)nc4C(F)(F)F)C3=O)ccnc2c(OC)n1 + Cc1cccc(N(C)C(=O)C2C(O)CCN2c2nc(C)cc(C(F)(F)F)c2C#N)c1 ?
A. N

---

Tested on: 379773-124-R-J2-PDC spheroid viability
Experiment: Anticancer human tumor 379773-124-R-J2-PDC cell line growth inhibition [POLQ];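 also: spheroids exposed to drugs for seven days before readout; percent viability relative to DMSO vehicle control taken as 100%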
Settings: second compound 10 µM; first compound 3.16 µM; active compounds read low; spheroids with HUVEC and MSC
Answer each item with its documented viability, T/C.
Give bare numbers, in %.

These solved cases illustrate the format of a correct answer.
CCc1cc2c(N3CCc4c(cc(Cn5ccnc5)cc4-c4cn(C)nc4C(F)(F)F)C3=O)cc(C)nc2c(OC)n1 + Nc1ccc(C#CCN(C(=O)Cc2ncc(C(F)(F)F)cc2C(F)(F)F)c2ccc(F)cc2)nn1	56.4
CCc1cc2c(N3CCc4c(cc(Cn5ccnc5)cc4-c4cn(C)nc4C(F)(F)F)C3=O)ccnc2c(OC)n1 + COC1C(OC(N)=O)C(O)C(Oc2ccc3c(O)c(NC(=O)c4ccc(O)c(CC=C(C)C)c4)c(=O)oc3c2C)OC1(C)C	51.1
COc1cccc2c1C(=O)c1c(O)c3c(c(O)c1C2=O)CC(O)(C(=O)CO)CC3OC1CC(N)C(O)C(C)O1 (stereo unspecified) + Nc1ccc(C#CCN(C(=O)Cc2ncc(C(F)(F)F)cc2C(F)(F)F)c2ccc(F)cc2)nn1	1.29
COc1ccc([C@@H](O)c2cc(-c3ncnc4cc(N5CCOCC5)ccc34)c(F)cc2Cl)nn1 + Nc1ccc(C#CCN(C(=O)Cc2ncc(C(F)(F)F)cc2C(F)(F)F)c2ccc(F)cc2)nn1	105
CCCS(=O)(=O)Nc1ccc(F)c(C(=O)c2c[nH]c3ncc(-c4ccc(Cl)cc4)cc23)c1F + Cc1cccc(N(C)C(=O)C2C(O)CCN2c2nc(C)cc(C(F)(F)F)c2C#N)c1	77.8
CCc1cc2c(N3CCc4c(cc(Cn5ccnc5)cc4-c4cn(C)nc4C(F)(F)F)C3=O)ccnc2c(OC)n1 + Nc1ccc(C#CCN(C(=O)Cc2ncc(C(F)(F)F)cc2C(F)(F)F)c2ccc(F)cc2)nn1	55
CCCS(=O)(=O)Nc1ccc(F)c(C(=O)c2c[nH]c3ncc(-c4ccc(Cl)cc4)cc23)c1F + Nc1ccc(C#CCN(C(=O)Cc2ncc(C(F)(F)F)cc2C(F)(F)F)c2ccc(F)cc2)nn1	81.5
COc1cc(C2c3cc4c(cc3C(OC3OC5COC(C)OC5C(O)C3O)C3COC(=O)C23)OCO4)cc(OC)c1O (stereo unspecified) + Cc1cccc(N(C)C(=O)C2C(O)CCN2c2nc(C)cc(C(F)(F)F)c2C#N)c1	11.9
CNCc1ccc(-c2[nH]c3cc(F)cc4c3c2CCNC4=O)cc1 + Cc1cccc(N(C)C(=O)C2C(O)CCN2c2nc(C)cc(C(F)(F)F)c2C#N)c1	77.3
COc1cc2cc(C(=O)CCC(=O)O)sc2cc1OC + COC1C(OC(N)=O)C(O)C(Oc2ccc3c(O)c(NC(=O)c4ccc(O)c(CC=C(C)C)c4)c(=O)oc3c2C)OC1(C)C	86.1

Q. What value of viability, T/C on 379773-124-R-J2-PDC spheroid viability does COc1cc2cc(C(=O)CCC(=O)O)sc2cc1OC + Cc1cccc(N(C)C(=O)C2C(O)CCN2c2nc(C)cc(C(F)(F)F)c2C#N)c1 have?
A. 103

---

System: 379773-124-R-J2-PDC spheroid viability
Assay: Anticancer human tumor 379773-124-R-J2-PDC cell line growth inhibition [POLQ];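 also: spheroids exposed to drugs for seven days before readout; percent viability relative to DMSO vehicle control taken as 100%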
Settings: second compound 0.0316 µM; first compound 1 µM; active compounds read low; spheroids with HUVEC and MSC
Assay Readout: viability, T/C (%)
Give bare numbers, in %.

CCc1cc2c(N3CCc4c(cc(Cn5ccnc5)cc4-c4cn(C)nc4C(F)(F)F)C3=O)ccnc2c(OC)n1 + Nc1ccc(C#CCN(C(=O)Cc2ncc(C(F)(F)F)cc2C(F)(F)F)c2ccc(F)cc2)nn1	59.1
C=CCn1c(=O)c2cnc(Nc3ccc(N4CCN(C)CC4)cc3)nc2n1-c1cccc(C(C)(C)O)n1 + COC1C(OC(N)=O)C(O)C(Oc2ccc3c(O)c(NC(=O)c4ccc(O)c(CC=C(C)C)c4)c(=O)oc3c2C)OC1(C)C	1.84
COc1cccc(OCCCN)c1-c1cc(Nc2cnc(C#N)cn2)n[nH]1 + COC1C(OC(N)=O)C(O)C(Oc2ccc3c(O)c(NC(=O)c4ccc(O)c(CC=C(C)C)c4)c(=O)oc3c2C)OC1(C)C	1.34

For every item in the list below, what is its measured viability, T/C?
1. CCc1cc2c(N3CCc4c(cc(Cn5ccnc5)cc4-c4cn(C)nc4C(F)(F)F)C3=O)cc(C)nc2c(OC)n1 + COC1C(OC(N)=O)C(O)C(Oc2ccc3c(O)c(NC(=O)c4ccc(O)c(CC=C(C)C)c4)c(=O)oc3c2C)OC1(C)C
2. O=c1[nH]cc(F)c(=O)[nH]1 + COC1C(OC(N)=O)C(O)C(Oc2ccc3c(O)c(NC(=O)c4ccc(O)c(CC=C(C)C)c4)c(=O)oc3c2C)OC1(C)C
3. CC1COCCN1c1cc(-c2ccnn2C)c2ccnc(-c3ccn[nH]3)c2n1 (stereo not given) + Nc1ccc(C#CCN(C(=O)Cc2ncc(C(F)(F)F)cc2C(F)(F)F)c2ccc(F)cc2)nn1
4. COc1ccc([C@@H](O)c2cc(-c3ncnc4cc(N5CCOCC5)ccc34)c(F)cc2Cl)nn1 + COC1C(OC(N)=O)C(O)C(Oc2ccc3c(O)c(NC(=O)c4ccc(O)c(CC=C(C)C)c4)c(=O)oc3c2C)OC1(C)C
5. C=CC(=O)N1CCN(c2nc(=O)n(-c3c(C)ccnc3C(C)C)c3nc(-c4c(O)cccc4F)c(F)cc23)C(C)C1 (stereo not given) + COC1C(OC(N)=O)C(O)C(Oc2ccc3c(O)c(NC(=O)c4ccc(O)c(CC=C(C)C)c4)c(=O)oc3c2C)OC1(C)C
6. CCc1cc2c(N3CCc4c(cc(Cn5ccnc5)cc4-c4cn(C)nc4C(F)(F)F)C3=O)cc(C)nc2c(OC)n1 + Cc1cccc(N(C)C(=O)C2C(O)CCN2c2nc(C)cc(C(F)(F)F)c2C#N)c1

A.
[53, 80.3, 11.4, 80, 85.1, 62.4]

# return viability, T/C for each item in the list
1. C#Cc1c(F)ccc2cc(O)cc(-c3ncc4c(N5CC6CCC(C5)N6)nc(OCC56CCCN5CC(F)C6)nc4c3F)c12 (stereo not given) + Nc1ccc(C#CCN(C(=O)Cc2ncc(C(F)(F)F)cc2C(F)(F)F)c2ccc(F)cc2)nn1
2. COc1cc2cc(C(=O)CCC(=O)O)sc2cc1OC + COC1C(OC(N)=O)C(O)C(Oc2ccc3c(O)c(NC(=O)c4ccc(O)c(CC=C(C)C)c4)c(=O)oc3c2C)OC1(C)C
3. C=CC(=O)N1CCN(c2nc(=O)n(-c3c(C)ccnc3C(C)C)c3nc(-c4c(O)cccc4F)c(F)cc23)C(C)C1 (stereo not given) + Cc1cccc(N(C)C(=O)C2C(O)CCN2c2nc(C)cc(C(F)(F)F)c2C#N)c1
4. CC1COCCN1c1cc(C2(O)CC3CCC(C2)O3)c2cnn(-c3ccn[nH]3)c2n1 (stereo not given) + Cc1cccc(N(C)C(=O)C2C(O)CCN2c2nc(C)cc(C(F)(F)F)c2C#N)c1
5. CCc1cc2c(N3CCc4c(cc(Cn5ccnc5)cc4-c4cn(C)nc4C(F)(F)F)C3=O)ccnc2c(OC)n1 + COC1C(OC(N)=O)C(O)C(Oc2ccc3c(O)c(NC(=O)c4ccc(O)c(CC=C(C)C)c4)c(=O)oc3c2C)OC1(C)C
6. C#Cc1c(F)ccc2cc(O)cc(-c3ncc4c(N5CC6CCC(C5)N6)nc(OCC56CCCN5CC(F)C6)nc4c3F)c12 (stereo not given) + Cc1cccc(N(C)C(=O)C2C(O)CCN2c2nc(C)cc(C(F)(F)F)c2C#N)c1
7. CC1COCCN1c1cc(C2(S(C)(=N)=O)CC2)nc(-c2ccnc3[nH]ccc23)n1 (stereo not given) + Cc1cccc(N(C)C(=O)C2C(O)CCN2c2nc(C)cc(C(F)(F)F)c2C#N)c1
8. CC(C)n1c(=O)n(C)c2cnc3cc(F)c(-c4ccc(OCCCN5CCCCC5)nc4)cc3c21 + Nc1ccc(C#CCN(C(=O)Cc2ncc(C(F)(F)F)cc2C(F)(F)F)c2ccc(F)cc2)nn1

A.
[89.1, 82.5, 105, 12.7, 58.6, 74.6, 77, 94.3]

Values compiled from PubChem BioAssay AID1963848.
